Listed below are compounds with Ki for 5-hydroxytryptamine receptor 4 (Cavia porcellus), each taken from published literature.
Attribute Measured: Ki (nM)

O=C(OC[C@@H]1CCN2CCC[C@@H]12)c1c[nH]c2ccccc12; 0.183
COc1cc(C(=O)OCCCN2CCCCC2)c2ccccc2n1; 52
CCCCN1CCC(CCC(=O)c2cc(Cl)c(N)cc2OC)CC1; 3.9
CC(C)N1CCC(COc2nc3ccsc3n3cccc23)CC1; 18.2
COc1cc(N)c(Cl)cc1C(=O)OCCN1CCC(NC(=O)NCCOCCOCCNC(=O)NCC(=O)OCc2ccccc2)CC1; 4
COc1cc(C(=O)OCCN2CCC(NC(=O)OC(C)(C)C)CC2)c2ccccc2n1; 304
CC(C)n1c(=O)n(C(=O)NCCN2CCN(Cc3ccc(F)cc3)CC2)c2ccccc21; 262
CN1CCN(CCCNC(=O)n2c(=O)n(C3CC3)c3ccccc32)CC1; 39.7

[A] CCCCN1CCC(COC(=O)c2cc(F)c(N)c3c2OCCO3)CC1
[B] Fc1cccc2c1nc(OCC1CCN(CC(F)F)CC1)c1cccnc12
Q) Could you please tell me which of these two has the higher Ki: A or B ? Answer by stating the label of the chosen item.
A) B

[A] COc1cc(N)c(Cl)cc1C(=O)OCCN1CCC(NC(=O)NCCOCCOCCNC(=O)NC2CCN(CCOC(=O)c3cc(Cl)c(N)cc3OC)CC2)CC1
[B] CN1CCC(COc2nc3sccc3n3cccc23)CC1
Q) Could you please tell me which of these two has the higher Ki: A or B ? Answer by stating the label of the chosen item.
A) B
(B: 38 nM, A: 4 nM)

[1] CC(C)n1c(=O)n(C(=O)NCCN2CCN(C)CC2)c2ccccc21
[2] O=C1c2cccc3nc(N4CCCCC4)cc(c23)C(=O)N1CCCN1CCCCC1
[3] COc1cc(N)c(Cl)cc1C(=O)NC[C@@H]1CC[N@@+]2(C)CCC[C@@H]12
Q) Ascending by Ki, please. The response must list the labels following the requested ordering.
A) 3, 1, 2
